FYI, the data here is from PubChem BioAssay.

# Test system: Botulinum neurotoxin type F light chain protease (Clostridium botulinum)
# methodDescription: Botulinum neurotoxin type F light chain protease inhibition, multiplex microsphere flow cytometry, validation set (AID 588459)
# testContext: multiplex microsphere protease substrate cleavage assay, at 10 µM, stronger effect = higher value
Each record here notes measured inhibition.
valueType: inhibition (%)

INSERT INTO assay_data (structurenotation, testtarget, readoutunit, readoutnumber) VALUES
  ('CC(=O)OCC(=O)[C@@]1(OC(C)=O)[C@@H](C)C[C@H]2[C@@H]3C[C@H](F)C4=CC(=O)C=C[C@]4(C)[C@@]3(F)[C@@H](O)C[C@@]21C', 'Botulinum neurotoxin type F light chain protease (Clostridium botulinum)', '%', 1.6),
  ('Cn1c(=O)c(C(=O)NCCO)c(O)c2ccccc21', 'Botulinum neurotoxin type F light chain protease (Clostridium botulinum)', '%', 0.4),
  ('Cn1c(=O)[nH]c(=O)c2c1nc(Br)n2CCCO', 'Botulinum neurotoxin type F light chain protease (Clostridium botulinum)', '%', 2.3);
